System: CCRF-CEM leukemia
Experiment: NCI tumour cell line growth inhibition, 48 h
Provide the reported TGI of each item.

Noted for O=C1CCCSC(=O)N1Cc1ccccc1 : its TGI reads > 100 µM

Noted for N#CCCC1C(C#N)C2(Cl)CC1(Cl)C(Cl)=C2Cl (centres undefined) : its TGI reads > 10 µM

Noted for COc1cccc(C2c3cc4c(cc3OC(C)(N3CCCC3)C2C)OCO4)c1O (centres undefined) : its TGI reads 21.2 µM

Noted for COc1ccc(CC2c3cc4c(cc3CCN2C)OCO4)c(C=O)c1OC (centres undefined) : its TGI reads > 100 µM

Noted for CCC(=O)[C@H](C)[C@@H](OC(=O)[C@H](C)CC)[C@H](C)[C@H]1OC(CC)=C(C)C(=O)[C@@H]1C : its TGI reads 44.8 µM

Noted for COc1cnc2c(c1)C(=O)c1c-2n(CCCN2CCOCC2)c(=O)c2cc(F)ccc12 : its TGI reads > 100 µM

Please give TGI, item by item, for the list that follows.
1. CC1(C)N=[N+]([O-])C1(C)C
2. Cc1ccc(C(=O)O)cc1S(=O)(=O)Nn1cnc2ccc(S(=O)(=O)Nc3ccccc3C(=O)O)cc2c1=O
3. Nc1nc(SCCc2ccccc2)c2[nH]cnc2n1
4. C=CCN1C[C@H](C)N([C@H](c2ccc(C(=O)NC(CC)CC)cc2)c2cccc(OC)c2)C[C@H]1C
5. O=C(CCc1nc(=S)[nH][nH]1)Nc1ccc(Cl)c(Cl)c1
6. Cc1c(C(=O)C/C(=N/NC(=O)c2ccccc2O)C(=O)Nc2ccccc2C(C)C)[n+](=O)c2ccccc2n1[O-]
7. CC1(C)C(=O)/C=C\C(=O)C(C)(C)C2=CC=C(O2)C(C)(C)C(=O)/C=C\C(=O)C(C)(C)C2=CC=C1O2

*A*
1: > 100 µM; 2: > 100 µM; 3: > 100 µM; 4: > 100 µM; 5: > 100 µM; 6: 28.8 µM; 7: > 100 µM

====

Tested on: BT-549 breast
Test: NCI tumour cell line growth inhibition, 48 h; in the data active = GI50 below about 0.43 µM; inactive = the rest
Just give me one of these, please: active, inactive

Example results:
*Q* I'd appreciate the recorded outcome for COc1cc2c(cc1OCCCCN1CCN(CC(=O)Nc3ccc(Cl)cc3C(=O)c3ccccc3Cl)CC1)N=CC1CCCN1C2=O (stereo not given) from this test.
*A* active

*Q* I'd appreciate the recorded outcome for Nc1ccccc1C#C/C=C\C#Cc1ccccc1OC(F)(F)F from this test.
*A* inactive

*Q* I'd appreciate the recorded outcome for C=CCO[C@H]1CO[C@H]2[C@@H]1OC[C@@H]2Oc1ccc(Nc2ccnc(Nc3ccc(O[C@H]4CO[C@H]5[C@@H]4OC[C@@H]5OCC=C)c(Cl)c3)n2)cc1Cl from this test.
*A* inactive

*Q* I'd appreciate the recorded outcome for Fc1[nH]nc2ccc([C@@H]3Nc4ccc5[nH]ncc5c4[C@H]4C5CCC(C5)[C@@H]34)cc12 (stereo not given in full) from this test.
*A* inactive

*Q* I'd appreciate the recorded outcome for O=C(Nc1ccc(F)cc1)Nc1ccc(Cl)c([N+](=O)[O-])c1 from this test.
*A* inactive

*Q* I'd appreciate the recorded outcome for CCN1/C(=C\c2cc[n+](CC)c3ccccc23)C=Cc2ccccc21 from this test.
*A* active

Consider the record given below.
*Q* I'd appreciate the recorded outcome for COC([CH2][Hg][n]1cnc2c1c(=O)n(C)c(=O)n2C)CN1C(=O)c2ccccc2S1(=O)=O (stereo not given) from this test.
*A* inactive
